Origin of values: patent US5578608A

Biological target: HIV-1 protease (Human immunodeficiency virus type 1 group M subtype B, UniProt P04585)
Construct: made in house; host or cells: E. coli K12 L507/pHP10D (NRRL B-18560)
Assay: biochemical
Conditions: read-out: Fluorescence Assay IC50 (converted)
The entries below are paired with their reported IC50.
Write the answer as a number in nM, unit excluded.

Examples with their reported IC50 follow.
* O=C(N[C@@H](Cc1c[nH]cn1)C(=O)N[C@@H](Cc1ccccc1)[C@@H]1O[C@@H]1[C@H](Cc1ccccc1)NC(=O)[C@H](Cc1c[nH]cn1)NC(=O)OCc1ccccc1)OCc1ccccc1 | 84.2
* N#CC[C@H](NC(=O)c1ccc2ccccc2n1)C(=O)N[C@@H](Cc1ccccc1)[C@@H]1O[C@@H]1[C@H](Cc1ccccc1)NC(=O)[C@H](CC#N)NC(=O)c1ccc2ccccc2n1 | 5350

Alright, here's another compound for you.
### Prompt # IC50 lookup, item "CC(C)(C)[C@H](NC(=O)OCc1ccc2ccccc2n1)C(=O)N[C@@H](Cc1ccccc1)[C@@H]1O[C@@H]1[C@H](Cc1ccccc1)NC(=O)[C@@H](NC(=O)OCc1ccc2ccccc2n1)C(C)(C)C"
### Response 382

###

Molecular target: HIV-1 protease (Human immunodeficiency virus type 1 group M subtype B)
Construct: made in house; host or cells: E. coli K12 L507/pHP10D (NRRL B-18560)
Experiment: biochemical
Conditions: read-out: Fluorescence Assay average IC50 (marked *) (converted)
property label: IC50 (nM)
Write the answer as a number in nM, unit excluded.

- CC(C)[C@H](NC(=O)OCc1ccccc1)C(=O)N[C@@H](Cc1ccccc1)[C@@H]1O[C@@H]1[C@H](Cc1ccccc1)NC(=O)[C@@H](NC(=O)OCc1ccccc1)C(C)C: 212

### Prompt # IC50 lookup, item "CC[C@H](NC(=O)N(C)Cc1ccc2ccccc2n1)C(=O)N[C@@H](Cc1ccc2ccccc2c1)[C@@H]1O[C@@H]1[C@H](Cc1ccc2ccccc2c1)NC(=O)[C@H](CC)NC(=O)N(C)Cc1ccc2ccccc2n1"
### Response 181

### Prompt # IC50 lookup, item "CC[C@H](NC(=O)N(C)Cc1ccc2ccccc2n1)C(=O)N[C@@H](Cc1ccccc1)[C@@H]1O[C@@H]1[C@H](Cc1ccccc1)NC(=O)[C@H](CC)NC(=O)N(C)Cc1ccc2ccccc2n1"
### Response 8.36

### Prompt # IC50 lookup, item "CC(C)[C@H](NC(=O)OCc1ccc2ccccc2n1)C(=O)N[C@@H](Cc1ccccc1)[C@@H]1O[C@@H]1[C@H](Cc1ccccc1)NC(=O)[C@@H](NC(=O)OCc1ccc2ccccc2n1)C(C)C"
### Response 59.9

### Prompt # IC50 lookup, item "CC[C@H](C)[C@H](NC(=O)N(C)Cc1ccc2ccccc2n1)C(=O)N[C@@H](Cc1ccccc1)[C@@H]1O[C@@H]1[C@H](Cc1ccccc1)NC(=O)[C@@H](NC(=O)N(C)Cc1ccc2ccccc2n1)[C@@H](C)CC"
### Response 166

### Prompt # IC50 lookup, item "CC(C)[C@H](NC(=O)OCc1ccccn1)C(=O)N[C@@H](Cc1ccccc1)[C@@H]1O[C@@H]1[C@H](Cc1ccccc1)NC(=O)[C@@H](NC(=O)OCc1ccccn1)C(C)C"
### Response 349

### Prompt # IC50 lookup, item "CC(C)[C@H](NC(=O)OCc1ccc2cccc(F)c2n1)C(=O)N[C@@H](Cc1ccccc1)[C@@H]1O[C@@H]1[C@H](Cc1ccccc1)NC(=O)[C@@H](NC(=O)OCc1ccc2cccc(F)c2n1)C(C)C"
### Response 23.1
